# System: crabgrass, Brazil
# protocol summary: Test F preemergence
# Type: in vivo, Digitaria horizontalis
# conditions: preemergence; 8 g ai/ha; scale 0 to 100, 100 is complete control
measure name: Plant response rating, Crabgrass, Brazil
Numbers only.

Below, 3 compounds whose answers are already recorded.
* CCCc1cc(C(=O)NCC(F)(F)F)nn1Cc1ccnc(C(F)(F)F)c1 | 5
* CCNC(=O)c1cc(CC)n(Cc2ccnc(C(F)(F)F)c2)n1 | 30
* CCNC(=O)c1cc(CCCl)n(Cc2ccnc(C(F)(F)F)c2)n1 | 0

GET /values?readout=Plant response rating, Crabgrass, Brazil&system=crabgrass, Brazil&item= CCc1cc(C(=O)NCC(F)(F)F)nn1Cc1ccnc(C(F)(F)F)c1
30

====

# System: corn
# protocol summary: Test A postemergence
# Type: in vivo, Zea mays
# conditions: Postemergence, 500 g ai/ha; visual rating after approx. 10 days, 0 to 100 scale (0 no effect, 100 complete control)
measure name: Corn plant response rating
Numbers only.

A selection of reference data follows.
- Cc1cc(C(=O)NC2CC2)nn1Cc1cccc(OC(F)(F)F)c1: 50
- Cc1cc(C(=O)NCC(F)(F)C(F)(F)F)nn1Cc1cccc(C(F)(F)F)c1: 0
- CCc1cc(-c2ccc(C(F)(F)F)cc2)nn1Cc1nc(C(F)(F)F)nn1C: 40
- CCc1cc(C(=O)NCC(F)(F)F)nn1Oc1cccc(C(F)(F)F)n1: 0

Can you give me Corn plant response rating for all of these, one by one?
1. CCCNC(=O)c1cc(C)n(Oc2ccnc(C(F)(F)F)c2)n1
2. Cc1cc(C(=O)NC2CC2)nn1Cc1cc(F)cc(C(F)(F)F)c1
3. CCc1cc(-c2ccc(Br)cc2)nn1Cc1ccnc(C(F)(F)F)c1
4. CCc1cc(C(=O)NCC(F)(F)F)nn1Cc1ccnc(C(F)(F)F)c1

1. 30
2. 10
3. 30
4. 100

====

I'd appreciate it if you could supply Barnyardgrass plant response rating values for the items below.
# Test system: barnyardgrass
# protocol summary: Test A postemergence
# Type: in vivo, Echinochloa crus-galli
# conditions: postemergence, 125 g ai/ha, about 10 days, visual rating on 0 to 100 scale (0 no effect, 100 complete control)
Answers are plain numbers.

• CCOc1cc(C(=O)NC(C)C)nn1Cc1ccnc(C(F)(F)F)c1 = 90
• CCCCNC(=O)c1cc(Cl)n(Cc2cccc(C(F)(F)F)c2)n1 = 0
• CCCNC(=O)c1cc(CC)n(Cc2cc(C(F)(F)F)nn2C(C)C)n1 = 0
• CCCNC(=O)c1cc(C)n(Cc2ccnc(C(F)(F)F)c2)n1 = 70

// batch mode: one Barnyardgrass plant response rating value per listed entry
1. CCc1cc(C(=O)NC(C)C)nn1Cc1cc(OC(F)F)nn1C
2. O=C(NC1CC1)c1cc(Cl)n(Cc2cccc(C(F)(F)F)c2)n1
3. CCONC(=O)c1cc(CC)n(Cc2cc(C(F)(F)F)nn2CC)n1
4. CCCNC(=O)c1cc(I)n(Cc2cccc(C(F)(F)F)c2)n1
5. CCc1cc(C(=O)NOC(C)C)nn1Cc1ccnc(C(F)(F)F)c1
6. CCCNC(=O)c1cc(CC)n(Cc2cc(OC(F)F)nn2C)n1

1. 0
2. 0
3. 90
4. 10
5. 80
6. 10

====

Exercise: state measured Soybean plant response rating for each of the compounds provided.
# System: soybean
# protocol summary: Test C preemergence
# Type: in vivo, Glycine max
# conditions: preemergence, 62 g ai/ha; scale 0 to 100 (0 no effect, 100 complete control), 13 to 15 days
Numbers only.

# example entries with known answers
• CCONC(=O)c1cc(CC)n(Cc2cc(C(F)(F)F)no2)n1 = 5
• CCNC(=O)c1cc(CC)n(Cc2ccnc(C(F)(F)F)c2)n1 = 55
• CCc1cc(C(=O)NCC2CC2)nn1Cc1ccnc(C(F)(F)F)c1 = 55
• CCCc1cc(C(=O)NOCC)nn1Cc1ccnc(C(F)(F)F)c1 = 5
• CCCNC(=O)c1cc(CCCl)n(Cc2ccnc(C(F)(F)F)c2)n1 = 70

Look at each compound and report its Soybean plant response rating.
1. CCCc1cc(C(=O)NCC)nn1Cc1cc(C(F)(F)F)nn1C
2. CCOc1cc(C(=O)NC2CC2)nn1Cc1ccnc(OC(F)F)c1
3. CCCc1cc(C(=O)NCC(F)(F)F)nn1Cc1ccnc(C(F)(F)F)c1
4. CCc1cc(C(=O)NC2CC2)nn1Cc1ccnc(OCC(F)(F)F)c1

[55, 40, 70, 70]

====

# Tested on: crabgrass, large
# protocol summary: Test C postemergence
# Type: in vivo, Digitaria sanguinalis
# conditions: postemergence, 62 g ai/ha; scale 0 to 100
For each of the molecules below, state its Crabgrass, Large plant response rating.
One number for each entry.

Consider the following illustrative entries.
• CCCc1cc(C(=O)NOCC)nn1Cc1ccnc(C(F)(F)F)c1 [Compound 185] = 5
• Cc1cc(C(=O)NC(C)C)nn1Cc1ccnc(C(F)(F)F)c1 [Compound 197] = 5
• CCCNC(=O)c1cc(CCC)n(Cc2cc(C(F)(F)F)nn2C)n1 [Compound 198] = 5

List Crabgrass, Large plant response rating for every entry below, keeping the order given.
1. CCc1cc(C(=O)NOC(C)C)nn1Cc1ccnc(C(F)(F)F)c1 [Compound 101]
2. CCc1cc(C(=O)NC2CC2)nn1Cc1ccnc(OCC(F)(F)F)c1 [Compound 200]

[15, 10]

Provide the reported Crabgrass, Large plant response rating of each entry below, same order.
1. CCc1cc(C(=O)NCC(F)(F)F)nn1Cc1ccnc(C(F)(F)F)c1 [Compound 78]
2. CCCNC(=O)c1cc(CC)n(Cc2ccnc(OC(F)F)c2)n1 [Compound 132]

1. 25
2. 5

====

Provide the reported Foxtail, Giant plant response rating (0 to 100 scale) of each item.
# Test system: foxtail, giant
# protocol summary: Test A preemergence
# Type: in vivo, Setaria faberii
# conditions: preemergence, 125 g ai/ha, visual injury approx. 10 days after treatment
Answers are plain numbers.

// solved cases for Foxtail, Giant plant response rating (0 to 100 scale) follow
• CCCNC(=O)c1cc(C)n(Cc2ccnc(C(F)(F)F)c2)n1 [Compound 191] = 100
• CCNC(=O)c1cc(CCCl)n(Cc2ccnc(C(F)(F)F)c2)n1 [Compound 179] = 100
• CCCNC(=O)c1cc(CCC)n(Cc2cc(C(F)(F)F)nn2C)n1 [Compound 198] = 100
• CCCNC(=O)c1cc(I)n(Cc2cccc(C(F)(F)F)c2)n1 [Compound 183] = 10

Looking for the measured Foxtail, Giant plant response rating (0 to 100 scale) of CCCCc1cc(C(=O)NC2CC2)nn1Cc1ccnc(C(F)(F)F)c1 [Compound 151] , can you help?
50

====

Give Velvetleaf plant response rating for every item shown.
# Tested on: velvetleaf
# protocol summary: Test C preemergence
# Type: in vivo, Abutilon theophrasti
# conditions: preemergence, 31 g ai/ha; visual rating, scale 0 to 100 (0 no effect, 100 complete control), 13 to 15 days
Answers are plain numbers.

Answered cases to consult:
* CCNC(=O)c1cc(CCCl)n(Cc2ccnc(C(F)(F)F)c2)n1 | 35
* CCCc1cc(C(=O)NCC)nn1Cc1cc(C(F)(F)F)nn1C | 55
* CCOc1cc(C(=O)NCC(F)(F)F)nn1Cc1ccnc(C(F)(F)F)c1 | 100

Now for a further compound.
Return reported Velvetleaf plant response rating; argument: CCCNC(=O)c1cc(CCCl)n(Cc2ccnc(C(F)(F)F)c2)n1
90

====

Kindly state Wheat plant response rating for each of the entries shown.
# Tested on: wheat
# protocol summary: Test A postemergence
# Format: in vivo, Triticum aestivum
# conditions: Postemergence, 500 g ai/ha; 0 to 100 scale (0 no effect, 100 complete control)
Answers are plain numbers.

Below, each entry is followed by its recorded Wheat plant response rating result.
• CCONC(=O)c1cc(OCC)n(Cc2ccnc(C(F)(F)F)c2)n1 = 90
• CCONC(=O)c1cc(CC)n(Cc2cc(C(F)(F)F)no2)n1 = 60
• CCc1cc(C(=O)NC2CC2)nn1Oc1cccc(C(F)(F)F)c1 = 10

Working through the 4 compounds below one at a time, give Wheat plant response rating for each.
1. CCc1cc(C(=O)NC(C)C)nn1Cc1cc(OC(F)F)nn1C
2. CCCNC(=O)c1cc(CC)n(Cc2ccnc(OC(F)F)c2)n1
3. Cc1cc(C(=O)NC(C)C)nn1Cc1ccnc(C(F)(F)F)c1
4. CCNC(=O)c1cc(CC)n(Cc2ccnc(OC(F)F)c2)n1

1: 10; 2: 90; 3: 60; 4: 90

====

# Tested on: morningglory
# protocol summary: Test A postemergence
# Assay type: in vivo, Ipomoea spp.
# conditions: Postemergence, 1000 g ai/ha; visual rating after approx. 10 days, 0 to 100 scale (0 no effect, 100 complete control)
Assign Morningglory plant response rating to each entry below.

Consider the following illustrative entries.
• CCNC(=O)c1cc(CC)n(Cc2cccc(OC(F)(F)F)c2)n1 = 90
• CCCc1cc(C(=O)NCC(F)(F)F)nn1Cc1cccc(C(F)(F)F)c1 = 100
• CCc1cc(C(=O)NCCOC)nn1Cc1cccc(OC(F)(F)F)c1 = 60

From here, focus on the item given below.
Bench note: what Morningglory plant response rating did CSc1cc(C(=O)NC2CC2)nn1Cc1cccc(C(F)(F)F)c1 show?
100
